Field: MIC. Provide a value for each of the molecules that follow.
system: Enterococcus faecalis; assay: Antimicrobial activity against Enterococcus faecalis ATCC 29212 after 16 to 22 hrs by broth microdilution method; type: functional
Give bare numbers, in µg/mL.

>  <MOLECULE>
CC[C@H]1OC(=O)[C@H](C)[C@@H](O)[C@H](C)[C@@H](O[C@@H]2O[C@H](C)C[C@H](N(C)C)[C@H]2O)[C@](C)(O)C[C@@H](C)CN(CCCN(CCC#N)C(=O)NC(C)c2cccc3ccccc23)[C@H](C)[C@@H](O)[C@]1(C)O (mixture of isomers)

>  <TARGET_UNDER_TEST>
Enterococcus faecalis

>  <MIC, µg/mL>
64

$$$$
>  <MOLECULE>
CC[C@H]1OC(=O)[C@H](C)[C@@H](O)[C@H](C)[C@@H](O[C@@H]2O[C@H](C)C[C@H](N(C)C)[C@H]2O)[C@](C)(O)C[C@@H](C)CN(CCCNC(=O)Nc2cccc3ccccc23)[C@H](C)[C@@H](O)[C@]1(C)O

>  <TARGET_UNDER_TEST>
Enterococcus faecalis

>  <MIC, µg/mL>
32

$$$$

For each of the molecules below, note its MIC.
1. CC[C@H]1OC(=O)[C@H](C)[C@@H](O[C@H]2C[C@@](C)(OC)[C@@H](O)[C@H](C)O2)[C@H](C)[C@@H](O[C@@H]2O[C@H](C)C[C@H](N(C)C)[C@H]2O)[C@](C)(O)C[C@@H](C)CN(C)[C@H](C)[C@@H](O)[C@]1(C)O (stereo in doubt; 1) [AZITHROMYCIN]
2. CC[C@H]1OC(=O)[C@H](C)[C@@H](O)[C@H](C)[C@@H](O[C@@H]2O[C@H](C)C[C@H](N(C)C)[C@H]2O)[C@](C)(O)C[C@@H](C)CN(CCCN(CCC#N)C(=O)Nc2ccc3ccccc3c2)[C@H](C)[C@@H](O)[C@]1(C)O
3. CC[C@H]1OC(=O)[C@H](C)[C@@H](O)[C@H](C)[C@@H](O[C@@H]2O[C@H](C)C[C@H](N(C)C)[C@H]2O)[C@](C)(O)C[C@@H](C)CN(CCCNC(=S)NCCc2ccccc2)[C@H](C)[C@@H](O)[C@]1(C)O

**A:**
1. 8
2. 32
3. 64
